Origin of the recorded values: the supplement of paper PMC7877785

experiment: self-splicing fitness, log relative to wild type (ln ratio); higher = more splicing; Tetrahymena group I intron in knt gene, E. coli kanamycin selection, DiMSum; sequences stand for … in CUCUCU…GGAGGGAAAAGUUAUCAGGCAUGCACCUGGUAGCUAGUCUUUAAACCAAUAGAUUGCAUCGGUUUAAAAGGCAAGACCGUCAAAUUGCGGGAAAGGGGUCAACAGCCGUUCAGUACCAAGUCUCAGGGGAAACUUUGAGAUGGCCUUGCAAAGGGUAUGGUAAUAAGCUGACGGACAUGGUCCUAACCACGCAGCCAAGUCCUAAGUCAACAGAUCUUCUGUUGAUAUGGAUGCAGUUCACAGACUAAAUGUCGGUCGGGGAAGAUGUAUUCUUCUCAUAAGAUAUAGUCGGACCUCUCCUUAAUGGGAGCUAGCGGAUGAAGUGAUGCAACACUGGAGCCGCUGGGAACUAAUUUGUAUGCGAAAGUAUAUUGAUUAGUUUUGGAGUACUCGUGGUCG; conditions: 30 °C;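 further: selection with 25 µg/mL kanamycin versus none on LB agar overnight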
measured_quantity: self-splicing fitness (ln)
Answer with the value's number alone.

- AUAUAGCAAUAUUACGUGGU: -2.88
- GGUGAGCAAUAUUACGCUGG: -2.87

Entry "AAGAAGCAAUAUUACGAUCA" needs its self-splicing fitness (ln) filled in; supply it.
-0.455

Entry "UUGCAGCAAUAUUACGCUAG" needs its self-splicing fitness (ln) filled in; supply it.
-2.94

Entry "AUUUAGCAAUAUUACGAUUG" needs its self-splicing fitness (ln) filled in; supply it.
-2.72

Entry "AGCUAGCAAUAUUACGGCUU" needs its self-splicing fitness (ln) filled in; supply it.
-3.43

Entry "GGUAAGCAAUAUUACGGCGC" needs its self-splicing fitness (ln) filled in; supply it.
0.369

Entry "UUGAAGCAAUAUUACGGCCC" needs its self-splicing fitness (ln) filled in; supply it.
-3.04

Entry "AGUUAGCAAUAUUACGGUUC" needs its self-splicing fitness (ln) filled in; supply it.
-3.52

Entry "UAUAAGCAAUAUUACGACGG" needs its self-splicing fitness (ln) filled in; supply it.
-0.907

Entry "CUGUAGCAAUAUUACGGUGA" needs its self-splicing fitness (ln) filled in; supply it.
-3.22

Entry "AAGCAGCAAUAUUACGCAGU" needs its self-splicing fitness (ln) filled in; supply it.
-3.36

Entry "ACGCAGCAAUAUUACGCCUA" needs its self-splicing fitness (ln) filled in; supply it.
-0.946

Entry "UCAUAGCAAUAUUACGCCCA" needs its self-splicing fitness (ln) filled in; supply it.
-2

Entry "GGAUAGCAAUAUUACGUUGU" needs its self-splicing fitness (ln) filled in; supply it.
-3.13

Entry "GGCCAGCAAUAUUACGCAGA" needs its self-splicing fitness (ln) filled in; supply it.
-1.66

====

assay: self-splicing fitness, log relative to wild type (ln ratio); higher = more splicing; Tetrahymena group I intron in knt gene, E. coli kanamycin selection, DiMSum; sequences stand for … in CUCUCU…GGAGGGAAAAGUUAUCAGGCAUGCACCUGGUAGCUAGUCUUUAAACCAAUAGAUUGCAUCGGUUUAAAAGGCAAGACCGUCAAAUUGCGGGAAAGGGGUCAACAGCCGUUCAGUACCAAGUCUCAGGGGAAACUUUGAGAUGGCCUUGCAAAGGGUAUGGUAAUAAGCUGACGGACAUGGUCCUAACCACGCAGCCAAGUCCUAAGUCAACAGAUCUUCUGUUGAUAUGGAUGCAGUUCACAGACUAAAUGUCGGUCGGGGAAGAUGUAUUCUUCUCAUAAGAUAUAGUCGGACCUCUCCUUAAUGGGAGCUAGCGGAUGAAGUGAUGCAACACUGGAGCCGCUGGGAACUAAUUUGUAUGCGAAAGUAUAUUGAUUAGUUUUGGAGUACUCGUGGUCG; settings: 30 °C
Returns one of t or f; t when self-splicing fitness (ln) is >= -3.

Decide: is the reported value of self-splicing fitness (ln) for "UGCGAGCAAUAUUACGGUCU" equal to or greater than -3?
t

Decide: is the reported value of self-splicing fitness (ln) for "AUCGAGCAAUAUUACGCACA" equal to or greater than -3?
t

Decide: is the reported value of self-splicing fitness (ln) for "UUUGAGCAAUAUUACGUGGA" equal to or greater than -3?
t

Decide: is the reported value of self-splicing fitness (ln) for "UGACAGCAAUAUUACGAUAG" equal to or greater than -3?
t

Decide: is the reported value of self-splicing fitness (ln) for "GGGUAGCAAUAUUACGAAUG" equal to or greater than -3?
t

Decide: is the reported value of self-splicing fitness (ln) for "CCGUAGCAAUAUUACGAUGU" equal to or greater than -3?
f

====

assay: self-splicing fitness, log relative to wild type (ln ratio); higher = more splicing; Tetrahymena group I intron in knt gene, E. coli kanamycin selection, DiMSum; sequences stand for … in CUCUCU…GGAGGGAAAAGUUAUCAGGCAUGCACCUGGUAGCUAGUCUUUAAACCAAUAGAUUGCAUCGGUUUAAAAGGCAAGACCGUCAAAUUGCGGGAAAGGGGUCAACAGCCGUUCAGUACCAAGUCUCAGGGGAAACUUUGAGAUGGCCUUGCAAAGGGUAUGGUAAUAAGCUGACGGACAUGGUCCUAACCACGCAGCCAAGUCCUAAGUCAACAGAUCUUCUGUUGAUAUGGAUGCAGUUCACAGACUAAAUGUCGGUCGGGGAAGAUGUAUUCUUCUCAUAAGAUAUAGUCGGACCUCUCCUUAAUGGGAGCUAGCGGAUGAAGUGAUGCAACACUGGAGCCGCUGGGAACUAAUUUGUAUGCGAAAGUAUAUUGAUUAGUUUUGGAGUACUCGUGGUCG; settings: 30 °C
measured_quantity: self-splicing fitness (ln)
Answer with the value's number alone.

• UCGAAGCAAUAUUACGAUUA = -1.19
• GCCUAGCAAUAUUACGUGCA = -2.35
• GUUUAGCAAUAUUACGGCGU = -0.507
• GAAAAGCAAUAUUACGGUCU = -0.737
• GGACAGCAAUAUUACGAGUA = -2.92

Entry "GACCAGCAAUAUUACGAGUC" needs its self-splicing fitness (ln) filled in; supply it.
-3.82

Entry "ACCCAGCAAUAUUACGCAAA" needs its self-splicing fitness (ln) filled in; supply it.
-1.21

Entry "CUAAAGCAAUAUUACGAUUU" needs its self-splicing fitness (ln) filled in; supply it.
-4.23

Entry "UUAUAGCAAUAUUACGAAAU" needs its self-splicing fitness (ln) filled in; supply it.
-3.75

Entry "GCGUAGCAAUAUUACGUCUA" needs its self-splicing fitness (ln) filled in; supply it.
-1.06

Entry "CAGAAGCAAUAUUACGUCGA" needs its self-splicing fitness (ln) filled in; supply it.
-2.1

Entry "ACUGAGCAAUAUUACGGACG" needs its self-splicing fitness (ln) filled in; supply it.
-2.2

Entry "CGUUAGCAAUAUUACGUACA" needs its self-splicing fitness (ln) filled in; supply it.
-0.358

Entry "GCAAAGCAAUAUUACGUGUG" needs its self-splicing fitness (ln) filled in; supply it.
-1.99

Entry "GGCGAGCAAUAUUACGACCC" needs its self-splicing fitness (ln) filled in; supply it.
-3.18

Entry "GUUAAGCAAUAUUACGGAAG" needs its self-splicing fitness (ln) filled in; supply it.
-3.2

====

assay: self-splicing fitness, log relative to wild type (ln ratio); higher = more splicing; Tetrahymena group I intron in knt gene, E. coli kanamycin selection, DiMSum; sequences stand for … in CUCUCU…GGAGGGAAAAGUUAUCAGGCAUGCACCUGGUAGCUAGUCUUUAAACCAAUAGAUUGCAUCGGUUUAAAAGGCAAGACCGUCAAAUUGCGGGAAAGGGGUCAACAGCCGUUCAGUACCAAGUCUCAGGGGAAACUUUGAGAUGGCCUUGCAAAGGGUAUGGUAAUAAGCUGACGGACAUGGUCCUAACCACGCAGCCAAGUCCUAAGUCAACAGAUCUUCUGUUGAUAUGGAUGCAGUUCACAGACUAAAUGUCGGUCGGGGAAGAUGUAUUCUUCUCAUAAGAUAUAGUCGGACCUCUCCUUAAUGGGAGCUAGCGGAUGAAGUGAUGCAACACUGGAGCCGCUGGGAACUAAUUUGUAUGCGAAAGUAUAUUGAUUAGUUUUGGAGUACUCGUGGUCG; conditions: 30 °C
Each entry below lists one item and its recorded self-splicing fitness (ln) value.
Answer with the value's number alone.

Reference set, count: 6
• AUUAAGCAAUAUUACGUCGA = -1
• CGUAAGCAAUAUUACGGGCA = -3.24
• CGCAAGCAAUAUUACGUGAG = -2.69
• GAGGAGCAAUAUUACGAUCU = -0.772
• CUAAAGCAAUAUUACGCUCC = -3.15
• CAGGAGCAAUAUUACGUCCU = -2.72

Entry "UAACAGCAAUAUUACGCGUA" needs its self-splicing fitness (ln) filled in; supply it.
-0.931

Entry "CAUGAGCAAUAUUACGUCAU" needs its self-splicing fitness (ln) filled in; supply it.
-3.61
